Listing of entries alongside the reported folding stability dG.
B1: 6YSE (parent)
chain: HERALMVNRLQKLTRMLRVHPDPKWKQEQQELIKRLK

Variants of: B1
Experiment: folding stability dG (cDNA display proteolysis); higher = more stable
Condition summary: PBS, room temperature

Below, each entry is followed by its recorded folding stability dG result.
Exam item: Recorded folding stability dG for HERALMVNRLQKLTDMLRVHPDPKWKQEQQELIKRLK [R15D] , please?
Marked response: 1.01 kcal/mol

Exam item: Look at this variant and give its reported folding stability dG. HERALMVNRLQKLTRMLRVHGDPKWKQEQQELIKRLK [P21G]
Marked response: 0.843 kcal/mol

Exam item: Please report the recorded folding stability dG for HERALMVNRLQKLARMLRVHPDPKWKQEQQELIKRLK [T14A] .
Marked response: 1.32 kcal/mol

Exam item: What value of measured folding stability dG is listed for HERAMMVNRLQKLTRMLRVHPDPKWKQEQQELIKRLK [L5M] ?
Marked response: 1.83 kcal/mol

Next:
Exam item: Given the variant HERALMVNRLQKLTRMLRVHPDPKWKQEQQELICRLK [K34C] , what is its reported folding stability dG?
Marked response: 1.59 kcal/mol

Exam item: I have this variant here, HERALMVNRLQKLTRMLREHPDPKWKQEQQELIKRLK [V19E] , and I need its recorded folding stability dG.
Marked response: 1.19 kcal/mol

Exam item: Sample HERALMVNRLQKLTGMLRVHPDPKWKQEQQELIKRLK [R15G] — what was its folding stability dG?
Marked response: 0.365 kcal/mol

Exam item: Record request: folding stability dG value, item HERALMVNRLQKLTRMLRVHPDPKWKQFQQELIKRLK [E28F]
Marked response: 0.366 kcal/mol

Exam item: If you can, please state the reported folding stability dG value of HERALIVNRLQKLTRMLRVHPDPKWKQEQQELIKRLK [M6I] .
Marked response: 1.8 kcal/mol

Exam item: What value of folding stability dG has been reported for the following variant? HERALMVNRLQKLTRMLQVHPDPKWKQEQQELIKRLK [R18Q]
Marked response: 1.19 kcal/mol

Exam item: Which folding stability dG value belongs to HERALMVNRLQKLTRMLRVHPLPKWKQEQQELIKRLK [D22L] ?
Marked response: 1.22 kcal/mol

Exam item: Query: folding stability dG; subject: HERALMVNRLQKLTRMLRVHPTPKWKQEQQELIKRLK [D22T]
Marked response: 1.13 kcal/mol

Exam item: What folding stability dG value was documented for this variant, HERALMVNRLQKLTRMLRVHPDAKWKQEQQELIKRLK [P23A] ?
Marked response: 1.03 kcal/mol

Exam item: Any idea what folding stability dG was measured for HERALMVNRLQKLTRMLRVHPDPKWKQEQQELIVRLK [K34V] ?
Marked response: 1.03 kcal/mol

Exam item: Data request, read-out folding stability dG, for HERALMVNRLQKLTRMLRVHPDPKWKQEQLELIKRLK [Q30L]
Marked response: 1.52 kcal/mol
